System: E18 rat cortical neuron-glia co-culture
Test: myelination (MBP fiber length per Olig2+ nucleus), % of 1 µM DAPT response (DMSO = 0) (% of DAPT); higher = more myelination, active = 50 or more
Conditions: 5 µM; treatment time: 8 days (DIV5-DIV13)
Some compounds, each annotated with its measured myelination.
Lab note: record the figure alone, no unit after it.

Please review the following examples before continuing.
- compound: "CNNCc1ccc(C(=O)NC(C)C)cc1"
  myelination: -0.797
- compound: "COc1ccccc1N1CCN(CC(O)COc2cccc3ccccc23)CC1 (stereo not drawn)"
  myelination: 15
- compound: "CCCCN1CCCC1CNC(=O)c1cc(C#N)c2ccccc2c1OC (stereo not drawn) [Nafadotride]"
  myelination: -20.4
- compound: "Clc1ccc2c(c1)C(N1CCNCC1)=Nc1ccccc1O2"
  myelination: -23.6
- compound: "Nc1nc(Cl)nc2c1ncn2[C@@H]1O[C@H](CO)[C@@H](O)[C@H]1O"
  myelination: -10.5

Quick one: myelination for N[C@@H](C(=O)N[C@@H]1C(=O)N2C(C(=O)O)=C(Cl)CS[C@H]12)c1ccccc1 ?
-10.6

Find the recorded myelination belonging to Nc1nc2ccc(Cl)cc2c2nc(-c3ccco3)nn12 and report it.
-3.25

// lookup myelination for Cc1onc(-c2ccccc2)c1-c1ccc(S(N)(=O)=O)cc1
-45.9

----------
System: E18 rat cortical neuron-glia co-culture
Assay: fiber score / MBP score (myelination specific beyond OL differentiation) (ratio); higher = more myelination-specific MBP alignment
Conditions: 1 µM; treatment time: 8 days (DIV5-DIV13)
Below, each of the molecules is paired with its reported fiber score / MBP score value.
Answer field: number only, no words.

- molecule: "CCOC(=O)OC(C)OC1=C(C(=O)Nc2ccccn2)N(C)S(=O)(=O)c2ccccc21 (stereo not drawn)"
  fiber score / MBP score: 0.796
- molecule: "CCCc1cc(=O)[nH]c(=S)[nH]1"
  fiber score / MBP score: 0.95

Please look up its fiber score / MBP score: N=C(N)N
0.765

----------
Test system: E18 rat cortical neuron-glia co-culture
Test: myelination (MBP fiber length per Olig2+ nucleus), % of 1 µM DAPT response (DMSO = 0) (% of DAPT); higher = more myelination, active = 50 or more
Conditions: 5 µM; treatment time: 8 days (DIV5-DIV13)
endpoint.name: myelination
Format: numeric value only, no unit, no commentary.

- compound: "NC1CCN(c2nc3c(cc2F)c(=O)c(C(=O)O)cn3-c2ccc(F)cc2F)C1 (stereo unspecified) [Tosufloxacin]"
  endpoint.name: "myelination"
  value: -14.4

Request: myelination, test system E18 rat cortical neuron-glia co-culture, entry C[C@H]1[C@H](OC(=O)CCC(=O)O)O[C@@H]2O[C@@]3(C)CC[C@H]4[C@H](C)CC[C@@H]1[C@@]24OO3 [Artesunate]
189

# query: myelination | item Cc1c(O)cccc1C(=O)N[C@@H](CSc1ccccc1)[C@H](O)CN1C[C@H]2CCCC[C@H]2C[C@H]1C(=O)NC(C)(C)C [Nelfinavir] | system: E18 rat cortical neuron-glia co-culture
-44.3

Query the reported myelination for E18 rat cortical neuron-glia co-culture; item: CC12CC3CC(C)(C1)CC(N)(C3)C2 [Memantine]
-7.18

API: value(readout= myelination, system= E18 rat cortical neuron-glia co-culture, query= Cc1cnc(NC(=O)C2=C(O)c3ccccc3S(=O)(=O)N2C)s1 [Meloxicam] )
3.06

Provide value of myelination for this record tested with E18 rat cortical neuron-glia co-culture: Nc1nc2c(ncn2COCCO)c(=O)[nH]1 [Acyclovir]
29.3
